Biological target: T1, EsCas13d, nuclease-dead (Eubacterium siraeum, UniProt B0MS50, R295A;H300A;R849A;H854A)
T1 sequence: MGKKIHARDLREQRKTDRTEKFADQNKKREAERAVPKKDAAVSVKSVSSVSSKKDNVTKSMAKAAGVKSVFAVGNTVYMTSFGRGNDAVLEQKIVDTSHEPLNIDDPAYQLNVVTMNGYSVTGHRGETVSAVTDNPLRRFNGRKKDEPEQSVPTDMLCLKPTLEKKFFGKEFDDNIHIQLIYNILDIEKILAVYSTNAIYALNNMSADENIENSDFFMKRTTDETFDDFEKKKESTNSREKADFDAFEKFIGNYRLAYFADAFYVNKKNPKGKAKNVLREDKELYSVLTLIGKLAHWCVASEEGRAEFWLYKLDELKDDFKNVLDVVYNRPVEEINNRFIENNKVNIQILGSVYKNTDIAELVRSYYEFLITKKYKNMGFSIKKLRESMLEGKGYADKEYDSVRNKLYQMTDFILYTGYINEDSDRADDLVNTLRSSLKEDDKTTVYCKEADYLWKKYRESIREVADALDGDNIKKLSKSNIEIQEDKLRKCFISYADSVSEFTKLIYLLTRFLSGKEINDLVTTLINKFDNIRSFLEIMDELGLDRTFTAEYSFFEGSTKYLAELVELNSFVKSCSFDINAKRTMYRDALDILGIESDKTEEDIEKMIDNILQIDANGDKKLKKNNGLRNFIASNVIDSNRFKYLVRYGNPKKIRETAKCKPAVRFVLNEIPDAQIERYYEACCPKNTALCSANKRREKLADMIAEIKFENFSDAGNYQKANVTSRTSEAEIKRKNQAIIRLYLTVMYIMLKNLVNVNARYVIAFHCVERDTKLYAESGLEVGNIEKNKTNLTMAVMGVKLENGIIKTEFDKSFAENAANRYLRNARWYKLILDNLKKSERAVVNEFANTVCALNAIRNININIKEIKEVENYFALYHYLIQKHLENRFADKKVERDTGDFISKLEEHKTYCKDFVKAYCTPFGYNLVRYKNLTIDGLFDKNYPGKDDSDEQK
Test: crRNA (strand 1, pre-loaded); Mg2+; 40 mM Tris-HCl pH 7.5, 150 mM NaCl, 6 mM MgCl2, 1 mM DTT, 0.1% Tween-20, 0.2 mg/ml BSA; 25 C; 10 min per concentration, then washed
Conditions: tags: His6-TwinStrep-SUMO cleaved; N-terminal SNAP kept (SNAP-Surface 488); label: 3' end held by stalled T7 RNA polymerase

# binder, unit descriptor, Kd
rows = [
    ("target 1 C7A,A16C (mixed) RNA 1: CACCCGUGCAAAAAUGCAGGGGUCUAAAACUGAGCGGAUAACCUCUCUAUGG RNA 2: GGGAAUGGAUCCACAUCUACGAAUUCGUACCAUAGCGAGGUUAUACGCUCACCGAGAUCGGAAGAGCACACGU", "nM", 56.1),
    ("target 1 insC 3' of 22,insU 3' of 17 (mixed) RNA 1: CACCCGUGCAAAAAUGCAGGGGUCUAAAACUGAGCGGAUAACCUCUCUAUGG RNA 2: GGGAAUGGAUCCACAUCUACGAAUUCGUACCCAUAGUAGAGGUUAUCCGCUCACCGAGAUCGGAAGAGCACACGU", "nM", 25.2),
    ("target 3 insC 3' of 11,insG 3' of 2 (mixed) RNA 1: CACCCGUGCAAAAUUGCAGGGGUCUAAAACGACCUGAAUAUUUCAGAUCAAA RNA 2: GGGAAUGGAUCCACAUCUACGAAUUCGUUUUUGAUCUGAAACUAUUCAGGUGCUGCAGAUCGGAAGAGCACACGU", "nM", 54),
    ("target 1 C4U,C7G (mixed) RNA 1: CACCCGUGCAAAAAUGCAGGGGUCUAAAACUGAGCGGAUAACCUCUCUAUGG RNA 2: GGGAAUGGAUCCACAUCUACGAAUUCGUACCAUAGAGAGGUUAUGCGUUCACCGAGAUCGGAAGAGCACACGU", "nM", 10.4),
    ("target 3 insC 3' of 4,insC 3' of 4 (mixed) RNA 1: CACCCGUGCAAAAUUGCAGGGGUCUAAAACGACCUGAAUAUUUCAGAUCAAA RNA 2: GGGAAUGGAUCCACAUCUACGAAUUCGUUUUUGAUCUGAAAUAUUCAGCCGUCUGCAGAUCGGAAGAGCACACGU", "nM", 34.5),
    ("target 1 MT 5'PFS GCU 3'PFS AUA (mixed) RNA 1: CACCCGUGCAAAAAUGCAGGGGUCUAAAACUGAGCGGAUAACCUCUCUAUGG RNA 2: GGGAAUGGAUCCACAUCUACGAAUUCGCUCCAUAGAGAGGUUAUCCGCUCAAUAAGAUCGGAAGAGCACACGU", "nM", 57),
    ("target 3 U2C,U8G (mixed) RNA 1: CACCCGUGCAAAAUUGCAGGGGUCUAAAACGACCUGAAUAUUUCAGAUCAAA RNA 2: GGGAAUGGAUCCACAUCUACGAAUUCGUUUUUGAUCUGAAAUAGUCAGGCCUGCAGAUCGGAAGAGCACACGU", "nM", 95.5),
    ("target 2 MT 5'PFS GGG 3'PFS UCC (mixed) RNA 1: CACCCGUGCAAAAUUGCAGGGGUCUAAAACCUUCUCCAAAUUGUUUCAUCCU RNA 2: GGGAAUGGAUCCACAUCUACGAAUUCGGGAGGAUGAAACAAUUUGGAGAAGUCCAGAUCGGAAGAGCACACGU", "nM", 52),
]

Data origin: paper PMC10786891
